Cited source for all entries: PubChem BioAssay (NCI)

Overview of recorded TGI for various compounds
# Test system: HT29 colon
# protocol_notes: NCI tumour cell line growth inhibition, 48 h
result_type: TGI

1) CC(=O)Nc1cccc(C#Cc2cncnc2Nc2ccc(OCc3cccc(F)c3)c(Cl)c2)c1 :: > 25 µM
2) COc1cc2c(cc1OC)C1=C(C=O)c3ccc(OC)c(OC)c3C(O)N1CC2 (stereo not given) :: > 100 µM
3) CN(C)CCNC(=O)Nc1ccc(N(C)c2ccnc(Nc3ccc(CS(C)(=O)=O)cc3)n2)cc1 :: > 25 µM
4) COCc1cc2c(s1)C(=O)C1=C(C2=O)C2(C=C(Br)C(=O)C(Br)=C2)CCN1 :: 12.9 µM
5) CC(C)(NO)/C(=N\O)c1ccccc1 :: > 10 µM
6) O=C1Nc2ccc(-c3cccnc3)cc2/C1=C/c1cc(Br)c(O)c(Br)c1 :: > 25 µM
7) CS(=O)(=O)OCCN1CCN(C(=O)c2ccc(Cl)c3c(Nc4ccc(S(=O)(=O)N=C(N)N)cc4)c4ccccc4nc23)CC1 :: > 100 µM
8) Cn1c2c(c3c(=O)[nH]ncc31)Cc1ccccc1-2 :: > 100 µM
9) CC1(C)N=C(/C(Cl)=[N+](/[O-])C(=O)c2ccc(Cl)cc2)C(C)(C)N1O :: 43 µM
10) OCCNc1nc2ccccc2c2[nH]c3ccccc3c12 :: 2.71 µM

----------
Overview of recorded TGI for various compounds
# Tested on: NCI-H460 lung
# protocol_notes: NCI tumour cell line growth inhibition, 48 h
result_type: TGI (µM)

1) O=C(CI)NC(=O)NC(=O)NCc1ccccc1 :: 23.4
2) O=C(/C=C/c1ccccc1)c1cc(CN2CCOCC2)c(O)c(CN2CCOCC2)c1 :: 19.4
3) Cn1c2c(c3c(=O)[nH]ncc31)Cc1ccccc1-2 :: 15.1
4) COc1cc(C=O)cc(C=Nc2ccc(Br)cc2)c1O :: 37.5
5) CCN(CC)CCCC(Nc1c2ccc(Cl)cc2nc2ccc(OC)cc12)c1ccc(Cl)cc1 (centres undefined) :: 2.88
6) O=C(CCCCN1CCN(CCCCC(=O)Nc2ccccc2C#C/C=C\C#Cc2ccccc2C(F)(F)F)CC1)Nc1ccccc1C#C/C=C\C#Cc1ccccc1C(F)(F)F :: 25.5
7) Nc1nc(Cl)c2ncn(Cc3ccc(C45CC6CC(CC(C6)C4)C5)c(OCc4cc(F)c(F)cc4F)c3)c2n1 :: 5.89
8) O=[N+]([O-])c1cccnc1S(=O)(=O)c1ccccc1 :: 27.8
9) COC(=O)c1ccc(NC(N)=NCCC(C)(C)c2ccc(C(F)(F)F)cc2)nc1 :: 4.56
10) C/C(=C/CCC(C)[C@@H]1CC[C@]2(C)C3=C(CC[C@@]12C)[C@@]1(C)CCC(=O)C(C)(C)[C@@H]1CC3)C(=O)O (some centres undefined) :: 4.02
11) Oc1cn(-c2ccc(Cl)cc2)nc1-c1n[nH]c(=S)n1-c1ccc(F)cc1 :: 40.8
12) COC1=C(OC)C(=O)C(Cc2c(Cl)nc3sccn23)=C(C)C1=O :: 25.4
13) Nc1ncnc2c1c(-c1ccc(Oc3ccccc3)cc1)nn2CC1SSCC1O (centres undefined) :: 7.97
14) CCCCCCCCCCCCCCCC(=O)OCC1OC(n2cc(F)c(=O)[nH]c2=O)C(NC(=O)OCc2ccccc2)C(O)C1O (centres undefined) :: 38.9

----------
# Test system: SW-620 colon
# protocol_notes: NCI tumour cell line growth inhibition, 48 h
result_type: GI50

1. CN(C)C1C(=O)C(C(N)=O)=C(O)C2(O)C(=O)C3=C(O)c4c(O)cccc4C(C)(O)C3CC12.[Cl][Sb]([Cl])[Cl] (centres undefined) :: 4010 nM
2. CCOC(=O)[C@@H](C)C[C@H](Cc1ccccc1)NC(=O)c1csc([C@@H](C[C@H](C(C)C)N(C)C(=O)CNC(=O)[C@H]2CCCCN2C)OC(C)=O)n1 :: 733 nM
3. O=C1Nc2ccc(-c3cccnc3)cc2/C1=C/c1cc(Br)c(O)c(Br)c1 :: 8230 nM
4. CCN1C(=O)N(CC)C2C1NC(=S)N2/N=C/C=C/c1ccccc1 (centres undefined) :: 72.6 nM

----------
# Test system: HS 578T breast
# protocol_notes: NCI tumour cell line growth inhibition, 48 h; in the data active = GI50 below about 0.43 µM; inactive = the rest
Outcome codes: 1 for active, 0 for inactive

1. Cc1ccc(C(=O)Nc2ccc(Oc3cc4cnn(C)c4cc3-c3cn[nH]c3)c(F)c2)c(=O)n1-c1ccc(F)cc1 :: 0
2. Cn1cc(-c2ccc3ncc(-c4ccc(CC(=O)Nc5cc(C(C)(C)C)nn5C)cc4)cc3c2)cn1 :: 0
3. Cc1ccc2ccc3c4ccccc4ccc3c2c1 :: 0
4. N#Cc1cc(F)cc(Oc2ccc(S(=O)(=O)C(F)F)c3c2CC(F)(F)[C@H]3O)c1 :: 0
5. CC(=O)Nc1cccc(C#Cc2cncnc2Nc2ccc(OCc3cccc(F)c3)c(Cl)c2)c1 :: 0
6. C#COc1cccc(Nc2ncnc3cc(NC(=O)[C@@H](C)Cl)ccc23)c1 :: 0
7. O=C(O)c1ccccc1NCn1nc(-c2ccccc2O)oc1=S :: 0
8. CCc1ccc(Oc2c(-c3ccc(OCc4ccc(Cl)cc4)cc3O)nn(C)c2C(F)(F)F)cc1 :: 0
9. O=c1[nH]c(=S)[nH]c(O)c1/C=C1\C=Nc2ccccc21 :: 0
10. COC(=O)[C@]12CC[C@@H](C)[C@H](C)[C@@H]1C1=CC[C@@H]3[C@@]4(C)C(C=O)=C[C@@](C)(COS(C)(=O)=O)C4=CC[C@@]3(C)[C@]1(C)CC2 :: 1

----------
# System: SNB-75 CNS
# protocol_notes: NCI tumour cell line growth inhibition, 48 h
result_type: TGI (µM)

1) CCCCCCCCCCCCCCCC(=O)OCC1OC(n2cc(F)c(=O)[nH]c2=O)C(NC(=O)OCc2ccccc2)C(O)C1O (centres undefined) :: 37.5
2) Cn1c2c(c3c(=O)[nH]ncc31)Cc1ccccc1-2 :: 34.9
3) O=c1[nH]c2c(Nc3c4ccccc4nc4ccccc34)c([N+](=O)[O-])c(Nc3c4ccccc4nc4ccccc34)c([N+](=O)[O-])c2[nH]1 :: 7.79
4) COc1ccccc1/C=C(\NC(=O)c1ccccc1)c1nc2ccc(Cl)cc2[nH]1 :: 70.7
5) CCCC(O)[C@@]1(CC)CC(C)C(O)(C2(C)C[C@H](C)[C@@H](C(CC)C(=O)C(C)[C@@H](O)[C@H](C)C3OC(O)(C(CC)C(=O)O)[C@@H](C)C(O)C3CC)O2)O1 (some centres undefined) :: 2.18
6) C=C1C(=O)O[C@@H]2C[C@@]3(C)[C@H](O)CCC(=C)[C@@H]3C[C@H]12 :: 15.2
7) COC(=O)[C@H](C)NC(=O)[C@H](NS(=O)(=O)c1nc2ccccc2s1)c1ccccc1 :: 39.4
8) O=c1[nH]c(=S)[nH]c(O)c1/C=C1\C=Nc2ccccc21 :: 5

----------
Overview of recorded TGI for various compounds
# System: HT29 colon
# protocol_notes: NCI tumour cell line growth inhibition, 48 h
result_type: TGI

1. Cc1ccc(-n2c3nc(=O)n(C)c(=O)c-3nc3ccccc32)c(C)c1 :: 11.7 µM
2. Cc1ccc(S(=O)(=O)OCCN(CCOS(=O)(=O)c2ccc(C)cc2)c2ccc(C=O)cc2)cc1 :: > 100 µM
3. O=C(Nc1ccccc1C(=O)NC(=O)c1ccccc1NC(=O)c1ccccc1)c1ccccc1 :: 12.7 µM
4. O=C1c2cccc3c(N4CCOCC4)ccc(c23)C(=O)N1CCN1CCN(CCCCCN2CCN(CCN3C(=O)c4cccc5c(N6CCOCC6)ccc(c45)C3=O)CC2)CC1 :: > 100 µM
5. CC(=O)Oc1cc2c(cc1OCC(F)(F)F)[C@H]1CC[C@]3(C)[C@@H](OC(C)=O)CC[C@H]3[C@@H]1CC2=O :: > 63.8 µM
6. CCc1c(O)nc(Nc2nc3ccccc3[nH]2)[nH]c1=O :: > 100 µM
7. O=[N+]([O-])c1cccnc1S(=O)(=O)c1ccccc1 :: 14.3 µM
8. C/C(=N\NC(=S)NC(C)(C)C)c1nc2ncccc2[nH]1 :: > 100 µM
9. CC[C@]1(c2ccc3c(c2)OCO3)C=[N+]([O-])O[C@H](OC2CCCC2(c2ccccc2)c2ccccc2)[C@@H]1OC(C)=O (some centres undefined) :: 3.78 µM
10. CCC12CCC[C@@]13C=C[C@H](O3)C(C)(C)C2=O (some centres undefined) :: > 100 µM
11. O=C(O)c1ccccc1NCn1nc(-c2ccccc2O)oc1=S :: > 100 µM
12. CCN(CC)CCCC(Nc1c2ccc(Cl)cc2nc2ccc(OC)cc12)c1ccc(Cl)cc1 (centres undefined) :: 1.75 µM
13. NCCCNc1nc2ccccc2c2c(=O)c3cc(Cl)ccc3sc12 :: 3.18 µM
14. O=C(/C=C\c1ccccc1)Oc1ccc(/C=C2\CCC/C(=C\c3ccc(OC(=O)/C=C\c4ccccc4)cc3)C2=O)cc1 :: > 100 µM
15. O=C(OCCN=c1c2ccccc2ccc2ccccc12)c1cc([N+](=O)[O-])cc([N+](=O)[O-])c1 :: > 100 µM
16. CCOC(=O)CNC(=O)c1[nH]cnc1/N=N/N(C)C :: > 100 µM
17. Oc1cn(-c2ccc(Cl)cc2)nc1-c1n[nH]c(=S)n1-c1ccc(F)cc1 :: > 100 µM
18. O=C(O)C1CCC(=O)N1C(=O)COc1cc(Cl)c(Cl)cc1Cl (centres undefined) :: > 100 µM
19. NC(=O)CSc1nc2ccccc2c(=O)n1N :: > 100 µM
20. O=c1c2ccccc2nc(-c2cccc(Cl)c2)n1NC1OC(CO)C(O)C(O)C1O (centres undefined) :: > 100 µM
21. Cn1cc(-c2ccc3ncc(-c4ccc(CC(=O)Nc5cc(C(C)(C)C)nn5C)cc4)cc3c2)cn1 :: > 20 µM
22. CCCC(O)[C@@]1(CC)CC(C)C(O)(C2(C)C[C@H](C)[C@@H](C(CC)C(=O)C(C)[C@@H](O)[C@H](C)C3OC(O)(C(CC)C(=O)O)[C@@H](C)C(O)C3CC)O2)O1 (some centres undefined) :: 2.09 µM
23. CC(C)(C)C1=NO[C@H]2[C@@H](NC(=O)c3ccccc3)CC[C@@H]12 :: > 100 µM
24. O=c1[nH]c2c(Nc3c4ccccc4nc4ccccc34)c([N+](=O)[O-])c(Nc3c4ccccc4nc4ccccc34)c([N+](=O)[O-])c2[nH]1 :: 3.11 µM
25. O=C(O)CCCc1ccc2c(c1)C(C(=O)O)CC2 (centres undefined) :: > 100 µM
26. O=C(/C=C/c1ccccc1)c1cc(CN2CCOCC2)c(O)c(CN2CCOCC2)c1 :: > 100 µM
27. Nc1c(C(=O)O)c2ccc([N+](=O)[O-])cc2c(=O)n1-c1nc2ccccc2s1 :: > 100 µM
28. Nc1nc(Cl)c2ncn(Cc3ccc(C45CC6CC(CC(C6)C4)C5)c(OCc4cc(F)c(F)cc4F)c3)c2n1 :: 22.7 µM
29. COc1ccccc1/C=C(\NC(=O)c1ccccc1)c1nc2ccc(Cl)cc2[nH]1 :: > 100 µM
30. C[n+]1c2ccccc2n2c3ccccc3c(NCCCn3ccnc3)c(C#N)c21 :: 37.9 µM
31. COc1cc(C2c3cc4c(cc3[C@@H](Nc3ccc(F)cc3)C3COC[C@H]23)OCO4)cc(OC)c1O (some centres undefined) :: 8.82 µM
32. CNC(=O)OCc1nc(SSc2nc(COC(=O)NC)c(COC(=O)NC)n2C)n(C)c1COC(=O)NC :: > 100 µM
33. COc1cc2c(c3c1c(=O)c1ccccc1n3C)C=C([N+](=O)[O-])C(C)(C)O2 :: > 100 µM
34. CCCCCCCCCC1CC(=O)OC23CCCC(=O)C12O3 (centres undefined) :: > 100 µM
35. S=C(Sc1ccc(Cl)cc1)Sc1ccc(Cl)cc1 :: 3.99 µM
36. N#Cc1c(-c2ccccc2)c(-c2ccccc2)cc2c(=O)c3ccc(Cl)cc3[nH]c12 :: > 100 µM
37. CC(C)C(NCc1c2ccccc2[n+](C)c2ccccc12)C(=O)O (centres undefined) :: 10.3 µM
38. O=C([O-])c1ccc([I+]c2ccccc2)cc1 :: > 100 µM
39. Cc1ccc2ccc3c4ccccc4ccc3c2c1 :: 77.7 µM
